PROCEDURE TEXT: reversal of MRP1-mediated doxorubicin resistance, pilot screen, H69AR cells, doxorubicin co-treatment (AID 601)
RUN PARAMETERS: H69AR cells + 2 uM doxorubicin, CellTiter-Glo, 72 h; measured here: viability with 2 uM doxorubicin; at 10 µM; stronger effect = lower value
REPORTED ENDPOINT: viability (%)

• CCn1c(CSc2nnc(-c3cccnc3)n2-c2ccccc2C)nc2cc(C(=O)O)ccc21 = 87.8
• CC(C)COc1ccc(-c2nnn(CC(=O)N3CCCC3)n2)cc1 = 88.9
• c1ccc(OCCOc2ncnc3sccc23)cc1 = 91.7
• O=C(NC1CCCC1)C(NS(=O)(=O)c1cccc2nsnc12)c1ccccc1 (centres undefined) = 81.5
• Cn1c(=O)[nH]c(=O)c2c1nc(NC1CCCCC1)n2CC(=O)NC1CCCCC1 = 80.1
• CCOC(=O)C(C)C1(O)c2ccccc2-c2ncccc21 (centres undefined) = 88.6
• COc1cc(Nc2cc(C)nc3ncnn23)cc(OC)c1OC = 79.3
• COc1ccccc1OCCOCCn1cnc2ccccc2c1=O = 91.1
• Cn1c(-c2ccc(C(C)(C)C)cc2)n[nH]c1=S = 80.4
